- test.description: Toxicity liver stage against HepG2, at 10uM
- Assay type: cell-based
- Parameters: test concentration 10 uM, cell line HepG2-A16-CD81EGFP
- test.conditions: human, HepG2-A16-CD81EGFP cells; read-out: INHIBITION
One threshold, -10%, splits the recorded cytotoxicity at 10 µM values: lower ones are 1 (yes), equal or higher ones are 0 (no).

[
  {
    "compound": "NC(=O)N1CCCN(CCCSCc2ccccc2)CC1",
    "assigned.category": "0 (no)"
  },
  {
    "compound": "COc1ccccc1C(=O)N1CCN(C(=O)CCn2ccnc2)CC1",
    "assigned.category": "1 (yes)"
  },
  {
    "compound": "FC(F)(F)c1ccnc(N2CCCC(N3CCOCC3)C2)c1 (stereo unspecified)",
    "assigned.category": "1 (yes)"
  },
  {
    "compound": "CC(NC(=O)NCCCc1n[nH]c(N)c1C#N)c1ccc(Cl)cc1 (stereo unspecified)",
    "assigned.category": "1 (yes)"
  },
  {
    "compound": "Cc1cc(C(=O)NCC(Cc2cccc(F)c2)N2CCCCC2=O)no1 (stereo unspecified)",
    "assigned.category": "0 (no)"
  },
  {
    "compound": "CCOCCN1CCN(CCCS(C)(=O)=O)CC1C (stereo unspecified)",
    "assigned.category": "0 (no)"
  }
]

---

Below, each entry is listed with its recorded cytotoxicity at 10 µM.
- test.description: Toxicity liver stage against HepG2, at 10uM
- Assay type: cell-based
- Design: test concentration 10 uM, cell line HepG2-A16-CD81EGFP
- test.conditions: human, HepG2-A16-CD81EGFP cells; read-out: INHIBITION

[
  {
    "molecule": "O=C(c1csc2nc(-c3ccc(Cl)cc3)cn12)N1CCCC(CO)C1 (centres undefined)",
    "cytotoxicity at 10 µM [%]": 2.2
  },
  {
    "molecule": "Fc1ccc(-c2noc3c2CN(CC2CC2)CC3)cc1F",
    "cytotoxicity at 10 µM [%]": -6.39
  },
  {
    "molecule": "CCOC(=O)NC(CNC(=O)c1ccccn1)CC(C)C (centres undefined)",
    "cytotoxicity at 10 µM [%]": 10.2
  },
  {
    "molecule": "CN1CCC(C(=O)NCc2nncn2-c2ccccc2)CC1=O (centres undefined)",
    "cytotoxicity at 10 µM [%]": -4.32
  },
  {
    "molecule": "COCCNC(=O)C1CN(Cc2ccncc2)Cc2ccnn2C1 (centres undefined)",
    "cytotoxicity at 10 µM [%]": -83
  },
  {
    "molecule": "O=C1CC2(CCN(CC3CC3)C2)CN1c1ccc2c(c1)OCO2 (centres undefined)",
    "cytotoxicity at 10 µM [%]": -2.47
  },
  {
    "molecule": "N#CCCN(C(=O)CN1CCCC1c1ccsc1)c1ccccc1 (centres undefined)",
    "cytotoxicity at 10 µM [%]": -8.42
  },
  {
    "molecule": "COc1cc(C(=O)N(C)C)ccc1NC(=O)c1ccsc1",
    "cytotoxicity at 10 µM [%]": -2.53
  },
  {
    "molecule": "Cc1ccccc1C1(CNC(=O)NC(C)c2nncn2C)CC1 (centres undefined)",
    "cytotoxicity at 10 µM [%]": -5.59
  },
  {
    "molecule": "CCn1cc(-c2cc(-c3cc(CN(C)C)cs3)nc(N)c2C#N)c(C)n1",
    "cytotoxicity at 10 µM [%]": 0.184
  },
  {
    "molecule": "CCS(=O)(=O)c1ccccc1C(=O)NCC1Cc2ccccc2O1 (centres undefined)",
    "cytotoxicity at 10 µM [%]": -0.561
  },
  {
    "molecule": "CCNC(=O)[C@@H]1C[C@@H](N)CN1Cc1ccc2cccc(Cl)c2n1",
    "cytotoxicity at 10 µM [%]": 12.9
  },
  {
    "molecule": "CC(C)CN1C(=O)CO[C@@H]2CN(C(=O)NC(C)C)C[C@H]21",
    "cytotoxicity at 10 µM [%]": -5.27
  },
  {
    "molecule": "CN(C)CC1(O)CCN(C(=O)c2cnc(CN3CCCC3)s2)C1 (centres undefined)",
    "cytotoxicity at 10 µM [%]": 0.245
  },
  {
    "molecule": "CCc1n[nH]c(C2CN(C(=O)c3cscn3)CCO2)n1 (centres undefined)",
    "cytotoxicity at 10 µM [%]": 5.08
  },
  {
    "molecule": "CCN(Cc1cnc(C)cn1)C1CCN(c2ccccc2)C1=O (centres undefined)",
    "cytotoxicity at 10 µM [%]": 4.81
  },
  {
    "molecule": "COCCn1cc(C(=O)N2CCCC2c2cccc(C)c2)ccc1=O (centres undefined)",
    "cytotoxicity at 10 µM [%]": 5.59
  },
  {
    "molecule": "c1ccc(CNC[C@H]2Cn3ccnc3CO2)cc1",
    "cytotoxicity at 10 µM [%]": -5.25
  },
  {
    "molecule": "CCC(CC)CS(=O)(=O)NC(=O)C1CCCC1",
    "cytotoxicity at 10 µM [%]": -13.3
  },
  {
    "molecule": "Cc1nc(-c2ncc(C(=O)NCCNc3ncccc3C)c(O)n2)cs1",
    "cytotoxicity at 10 µM [%]": -0.153
  },
  {
    "molecule": "CCCc1noc(C(C)N2CC(n3cccn3)C2)n1 (centres undefined)",
    "cytotoxicity at 10 µM [%]": 2.13
  },
  {
    "molecule": "CCn1ncnc1CN1CCC(CNC(=O)c2cccc(C)c2)C1 (centres undefined)",
    "cytotoxicity at 10 µM [%]": -2.59
  },
  {
    "molecule": "CCN(Cc1nccn1C)C(=O)c1ccc(NCc2ccccc2)nc1",
    "cytotoxicity at 10 µM [%]": -14.3
  },
  {
    "molecule": "CN1CCN(Cc2ccccc2CNC(=O)c2ccc(Br)cc2)CC1",
    "cytotoxicity at 10 µM [%]": 4.44
  }
]
